Tested on: HT29 Colorectal adenocarcinoma
Method summary: Primary high-throughput screen, Alamar Blue, adherent cells
Format: cell-based
Protocol conditions: Homo sapiens, HT-29; compound at 10 μM, 72 h; read-out: percentage kill, HT29
Note: every record was labeled by where its inhibition at 10 µM sits among class 1: < 40%; class 2: ≥ 40% and < 70%; class 3: ≥ 70%

Worked set:
Molecule: ClCc1ccccc1-c1cnn2c(NCc3cccs3)ccnc12 [Compound 12]
Assigned category: class 1
--
Molecule: c1ccc(CNc2ccnc3c(-c4ccc(N5CCOCC5)cc4)cnn23)nc1 [Compound 13]
Assigned category: class 1
--
Molecule: COc1ccc(-c2cnn3c(NCc4ccccn4)ccnc23)cc1 [Compound 3]
Assigned category: class 3
--
Molecule: Fc1ccc(-c2cnn3c(NCc4ccccn4)ccnc23)cc1Cl [Compound 11]
Assigned category: class 1
--
Molecule: c1ccc(CNc2ccnc3c(-c4cccc5cccnc45)cnn23)nc1 [Compound 8]
Assigned category: class 3
--
Molecule: COc1cccc(-c2cnn3c(NCc4ccccn4)ccnc23)c1 [Compound 1]
Assigned category: class 2
--
Molecule: COc1ccc(-c2cnn3c(NCc4ccccn4)ccnc23)cc1OC [Compound 2]
Assigned category: class 2
--
Molecule: Fc1ccccc1-c1cnn2c(NCc3ccccn3)ccnc12 [Compound 6]
Assigned category: class 1

Task: Bin this entry: c1ccc(-c2cnn3c(NCc4ccccn4)ccnc23)cc1 [Compound 5]
Output: class 3

Task: Bin this entry: Clc1cccc(Nc2ccn3ncc(-c4ccncc4)c3n2)c1 [Compound 14]
Output: class 2

* * *

Test system: NCI ADR RES Breast adenocarcinoma (pleural effusion)
Method summary: Primary high-throughput screen, Alamar Blue, adherent cells
Format: cell-based
Protocol conditions: Homo sapiens, compound at 10 μM, 72 h, read-out: percentage kill, NCI ADR RES
Experimental endpoint: inhibition at 10 µM (%)
Record the value in %, omitting the unit from your answer.

Examples with answers:
Molecule: Fc1ccccc1-c1cnn2c(NCc3ccccn3)ccnc12 [Compound 6]
Test target: NCI ADR RES Breast adenocarcinoma (pleural effusion)
Reported measurement: 51
//
Molecule: c1ccc(CNc2ccnc3c(-c4ccc(N5CCOCC5)cc4)cnn23)nc1 [Compound 13]
Test target: NCI ADR RES Breast adenocarcinoma (pleural effusion)
Reported measurement: 28
//
Molecule: c1ccc(CNc2ccnc3c(-c4cccc5cccnc45)cnn23)nc1 [Compound 8]
Test target: NCI ADR RES Breast adenocarcinoma (pleural effusion)
Reported measurement: 85
//
Molecule: COc1ccc(-c2cnn3c(NCc4ccccn4)ccnc23)cc1OC [Compound 2]
Test target: NCI ADR RES Breast adenocarcinoma (pleural effusion)
Reported measurement: 73
//
Molecule: c1ccc(-c2cnn3c(NCc4ccccn4)ccnc23)cc1 [Compound 5]
Test target: NCI ADR RES Breast adenocarcinoma (pleural effusion)
Reported measurement: 63
//
Molecule: ClCc1ccccc1-c1cnn2c(NCc3cccs3)ccnc12 [Compound 12]
Test target: NCI ADR RES Breast adenocarcinoma (pleural effusion)
Reported measurement: -12
//
Molecule: COc1ccc(-c2cnn3c(NCc4ccccn4)ccnc23)cc1 [Compound 3]
Test target: NCI ADR RES Breast adenocarcinoma (pleural effusion)
Reported measurement: 66
//
Molecule: COc1ccc(-c2cnn3c(NCc4ccccn4)ccnc23)cn1 [Compound 9]
Test target: NCI ADR RES Breast adenocarcinoma (pleural effusion)
Reported measurement: 64
//
Molecule: COc1ccc(-c2cnn3c(NCc4ccccn4)ccnc23)c(OC)c1 [Compound 4]
Test target: NCI ADR RES Breast adenocarcinoma (pleural effusion)
Reported measurement: 67

Now look at this one.
Task: Recorded inhibition at 10 µM for Fc1ccc(-c2cnn3c(NCc4ccccn4)ccnc23)cc1Cl [Compound 11] , please?
Output: 18

* * *

Entries and their measured EC50 follow.
Tested on: C9M-TF1 cells
Method summary: EC50 titration, Alamar Blue, suspension cells
Assay type: cell-based
Protocol conditions: Homo sapiens, 72 h
Procedure: On the day of the assay compounds are used to prepare dilution series on Titration Plates which are plated at ten times their final screening concentration in 10 μl aliquots. […] The EC50 values are calculated using the values obtained from the Alamar Blue readout which are converted into a “Percentage of the Untreated Control” and using Graph Pad Prism these values are plotted against the logarithm of the test concentration. […]
Record the value in µM, omitting the unit from your answer.

Molecule: COc1ccc(-c2cnn3c(NCc4ccccn4)ccnc23)cc1
Reported measurement: 5.62
//
Molecule: COc1cccc(-c2cnn3c(NCc4ccccn4)ccnc23)c1
Reported measurement: 26
//
Molecule: COc1ccc(-c2cnn3c(NCc4ccccn4)ccnc23)c(OC)c1
Reported measurement: 21.4
//
Molecule: Cc1csc(-c2cnn3c(NCc4ccccn4)ccnc23)c1
Reported measurement: 22.9
//
Molecule: c1ccc(-c2cnn3c(NCc4ccccn4)ccnc23)cc1
Reported measurement: 16.6
//
Molecule: COc1ccc(-c2cnn3c(NCc4ccccn4)ccnc23)cc1OC
Reported measurement: 24
//
Molecule: CN(C)c1cccc(-c2cnn3c(NCc4ccccn4)ccnc23)c1
Reported measurement: 20.4
//
Molecule: Fc1ccccc1-c1cnn2c(NCc3ccccn3)ccnc12
Reported measurement: 10

Task: Recorded EC50 for O=c1cc(N2CCOCC2)oc2c(-c3ccccc3)cccc12 [LY294002, reference compound] , please?
Output: 6.03

Task: Recorded EC50 for c1ccc(CNc2ccnc3c(-c4cccc5cccnc45)cnn23)nc1 , please?
Output: 17.8

Task: Recorded EC50 for COc1ccc(-c2cnn3c(NCc4ccccn4)ccnc23)cn1 , please?
Output: 17.8

* * *

Test system: C9M-TF1 cells
Method summary: LY294002 control plate titration, Alamar Blue
Format: cell-based
Protocol conditions: Homo sapiens, 72 h, FIG. 8
Experimental endpoint: EC50

Task: Recorded EC50 for O=c1cc(N2CCOCC2)oc2c(-c3ccccc3)cccc12 [LY294002, reference compound] , please?
Output: ~6 µM

* * *

System: NCI ADR RES Breast adenocarcinoma (pleural effusion)
Method summary: Primary high-throughput screen, Alamar Blue, adherent cells
Type: cell-based
Protocol conditions: Homo sapiens, compound at 10 μM, 72 h, read-out: percentage kill, NCI ADR RES
Entries and their measured inhibition at 10 µM follow.
Record the value in %, omitting the unit from your answer.

Examples with answers:
Structure notation: Clc1cccc(Nc2ccn3ncc(-c4ccncc4)c3n2)c1
Test target: NCI ADR RES Breast adenocarcinoma (pleural effusion)
Reported measurement: 2

Structure notation: COc1cccc(-c2cnn3c(NCc4ccccn4)ccnc23)c1
Test target: NCI ADR RES Breast adenocarcinoma (pleural effusion)
Reported measurement: 58

Structure notation: CN(C)c1cccc(-c2cnn3c(NCc4ccccn4)ccnc23)c1
Test target: NCI ADR RES Breast adenocarcinoma (pleural effusion)
Reported measurement: 63

Task: Recorded inhibition at 10 µM for Cc1csc(-c2cnn3c(NCc4ccccn4)ccnc23)c1 , please?
Output: 52

* * *

Tested on: HT29 Colorectal adenocarcinoma
Method summary: Primary high-throughput screen, Alamar Blue, adherent cells
Format: cell-based
Protocol conditions: Homo sapiens, HT-29; compound at 10 μM, 72 h; read-out: percentage kill, HT29
Entries and their measured inhibition at 10 µM follow.
Record the value in %, omitting the unit from your answer.

Examples with answers:
Structure notation: Cc1csc(-c2cnn3c(NCc4ccccn4)ccnc23)c1
Experimental endpoint: inhibition at 10 µM
Reported measurement: 68
--
Structure notation: COc1ccc(-c2cnn3c(NCc4ccccn4)ccnc23)cn1
Experimental endpoint: inhibition at 10 µM
Reported measurement: 69
--
Structure notation: CN(C)c1cccc(-c2cnn3c(NCc4ccccn4)ccnc23)c1
Experimental endpoint: inhibition at 10 µM
Reported measurement: 40

Now look at this one.
Task: Recorded inhibition at 10 µM for COc1ccc(-c2cnn3c(NCc4ccccn4)ccnc23)c(OC)c1 , please?
Output: 71
